test system: Cryptococcus neoformans; assay: Antifungal activity against Cryptococcus neoformans ATCC 90113 after 70 to 74 hrs by alamar blue dye based CLSI method; type: functional
Attribute Measured: IC50 (µg/mL)
Kindly answer with a numeric value in µg/mL, unit omitted.

Entry Cc1ccc(-c2nc(C[C@H](NC(=O)OC(C)(C)C)C(=O)N[C@@H](Cc3c[nH]c4ccccc34)C(=O)N[C@@H](Cc3c[nH]c(-c4ccc(C)cc4)n3)C(=O)NCc3ccccc3)c[nH]2)cc1 ; IC50 = 12.6

Input COC(=O)[C@H](Cc1c[nH]c(-c2ccccc2)n1)NC(=O)[C@H](Cc1c[nH]c2ccccc12)NC(=O)[C@H](Cc1c[nH]c(-c2ccccc2)n1)NC(=O)OC(C)(C)C . Output IC50: 9.14

GET /value?item= COC(=O)[C@H](Cc1c[nH]c(-c2ccccc2)n1)NC(=O)[C@H](Cc1c[nH]c2ccccc12)NC(=O)[C@@H](N)Cc1c[nH]c(-c2ccccc2)n1 &field=IC50 returns 3.71

IC50 reading for COC(=O)[C@H](Cc1c[nH]c(-c2ccc(C(C)(C)C)cc2)n1)NC(=O)[C@H](Cc1c[nH]c2ccccc12)NC(=O)[C@@H](N)Cc1c[nH]c(-c2ccc(C(C)(C)C)cc2)n1 : 0.83

Continuing:
The molecule identified as COc1ccc(-c2nc(C[C@H](NC(=O)[C@H](Cc3c[nH]c4ccccc34)NC(=O)[C@@H](N)Cc3c[nH]c(-c4ccc(OC)cc4)n3)C(=O)NCc3ccccc3)c[nH]2)cc1 registered its IC50 at 7.2

###

assay: Selectivity index, ratio of cytotoxicity against African green monkey VERO cells to IC50 for Staphylococcus aureus ATCC 29213; format: toxicity, cell-based; settings: read-out: Selectivity Index
Attribute Measured: selectivity ratio

As a guide, the following entries are already answered.
Measured selectivity ratio, CC(C)(C)OC(=O)N[C@@H](Cc1c[nH]c(-c2ccccc2)n1)C(=O)N[C@@H](Cc1c[nH]c2ccccc12)C(=O)N[C@@H](Cc1c[nH]c(-c2ccccc2)n1)C(=O)NCc1ccccc1 : > 1.3

# compound COC(=O)[C@H](Cc1c[nH]c(-c2ccc(C(C)(C)C)cc2)n1)NC(=O)[C@H](Cc1c[nH]c2ccccc12)NC(=O)[C@@H](N)Cc1c[nH]c(-c2ccc(C(C)(C)C)cc2)n1 ; its selectivity ratio = > 2.3

Form: compound = COC(=O)[C@H](Cc1c[nH]c(-c2ccc(-c3ccccc3)cc2)n1)NC(=O)[C@H](Cc1c[nH]c2ccccc12)NC(=O)[C@@H](N)Cc1c[nH]c(-c2ccc(-c3ccccc3)cc2)n1 ; selectivity ratio = > 3.9

Now for the compound whose selectivity ratio we want.
The compound CC(C)(C)c1ccc(-c2nc(C[C@H](NC(=O)[C@H](Cc3c[nH]c4ccccc34)NC(=O)[C@@H](N)Cc3c[nH]c(-c4ccc(C(C)(C)C)cc4)n3)C(=O)NCc3ccccc3)c[nH]2)cc1 showed selectivity ratio equal to > 2.68

###

experiment: Selectivity index, ratio of cytotoxicity against human SKOV3 cells to IC50 for methicillin-resistant Staphylococcus aureus ATCC 33591; format: toxicity, cell-based; settings: read-out: Selectivity Index
Parameter: selectivity ratio. Scope: all listed entries.

Worked cases, answers included:
Recorded result, CC(C)(C)c1ccc(-c2nc(C[C@H](NC(=O)[C@H](Cc3c[nH]c4ccccc34)NC(=O)[C@@H](N)Cc3c[nH]c(-c4ccc(C(C)(C)C)cc4)n3)C(=O)NCc3ccccc3)c[nH]2)cc1 , selectivity ratio: > 1.49

The compound listed as COC(=O)[C@H](Cc1c[nH]c(-c2ccc(C(C)(C)C)cc2)n1)NC(=O)[C@H](Cc1c[nH]c2ccccc12)NC(=O)[C@@H](N)Cc1c[nH]c(-c2ccc(C(C)(C)C)cc2)n1 has a reported selectivity ratio of > 1.49

Read the next record carefully.
selectivity ratio reading for COC(=O)[C@H](Cc1c[nH]c(-c2ccc(-c3ccccc3)cc2)n1)NC(=O)[C@H](Cc1c[nH]c2ccccc12)NC(=O)[C@@H](N)Cc1c[nH]c(-c2ccc(-c3ccccc3)cc2)n1 : > 5.18
